# maps each entry to its Ki
- ASSAY TARGET: T1, Recombinant cynomolgus TfR1, His6-tagged (a.a. 89-760) (cynomolgus, UniProt H9EXL1 89-760 (rhesus entry))
- T1 construct: range 89-760; same product number named for FP and SPR; also called Cyno TfR1; Acro Biosystems TFR-C524a
- T1 sequence (chain, as listed by the source): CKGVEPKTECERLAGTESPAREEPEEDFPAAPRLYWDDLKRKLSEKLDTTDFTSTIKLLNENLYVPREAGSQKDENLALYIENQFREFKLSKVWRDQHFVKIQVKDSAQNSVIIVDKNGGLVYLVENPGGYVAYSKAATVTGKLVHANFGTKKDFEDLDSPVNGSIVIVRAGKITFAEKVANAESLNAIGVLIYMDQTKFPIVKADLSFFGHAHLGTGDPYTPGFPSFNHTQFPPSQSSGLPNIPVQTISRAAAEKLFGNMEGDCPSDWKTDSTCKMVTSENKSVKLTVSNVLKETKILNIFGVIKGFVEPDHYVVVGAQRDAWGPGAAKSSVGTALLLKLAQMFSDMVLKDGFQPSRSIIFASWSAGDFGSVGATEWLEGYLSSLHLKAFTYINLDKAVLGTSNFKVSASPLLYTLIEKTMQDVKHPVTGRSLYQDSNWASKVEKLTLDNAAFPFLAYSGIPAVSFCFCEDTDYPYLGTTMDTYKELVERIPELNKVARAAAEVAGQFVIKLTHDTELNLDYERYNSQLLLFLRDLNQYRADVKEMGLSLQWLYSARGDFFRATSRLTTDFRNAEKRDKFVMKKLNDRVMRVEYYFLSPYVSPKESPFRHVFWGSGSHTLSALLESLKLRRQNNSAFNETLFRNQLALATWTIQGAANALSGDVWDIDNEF
- EXPERIMENTAL DETAILS: FP competition table (Table 6)
Starred links: 1 amine or outer side, 2 acyl side, 3 side chain; linkers in the order of their positions; H or OH if unused. Positions of bridges follow the written chain, without caps; N, C: chain ends. Non-standard residues stand in square brackets, D forms with d. No end group written: not given here. Fluorescein = fluorescein label on the C-terminal Lys side chain; TATB = O=C(C[*:1])N1CN(C(=O)C[*:2])CN(C(=O)C[*:3])C1; Sar = CNCC(=O)O
MEASUREMENT NAME: Ki

>>> result("ACSPDAHAGCISYCAXXXXXXK (3 Cys on TATB; [Sar6]; C-terminal Lys carries fluorescein) [BCY15774]")
"3470 nM"
>>> result("ACSPDAHLGCIAYCA[Sar][Sar][Sar][Sar][Sar][Sar]K(Fluorescein) (linker 2-10-14 via TATB) [BCY15777]")
"2910 nM"
>>> result("ACSADAHLGCISYCA[Sar][Sar][Sar][Sar][Sar][Sar]K(Fluorescein) (linker 2-10-14 via TATB) [BCY15771]")
"1060 nM"
